- measurementProtocol: binders of probe aFGF10 on microarray, primary screen, stem cell growth factor project, biochemical, small-molecule microarray, fluorescence 635/667 (AID 1071);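 further: score merges 667 nm spot intensity and signal to noise from triplicate slides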
- experimentalSetup: higher = more signal
composite z-score values by entry
readoutKind: composite z-score

INSERT INTO assay_data (compound, measuredvalue) VALUES
  ('CC(C)OC(=O)CC(=O)CC(O)c1ccc(C#N)cc1 (stereo not given)', 0.356),
  ('CC(C)NC(=O)[C@@H]1c2ccccc2C(=O)N(Cc2ccccc2)[C@H]1c1ccc(CO)cc1', 0.365),
  ('CC1CC/C=C\[C@H]2OC34C=CCN(Cc5ccccc5)C(=O)[C@H]3N(CCCCCO)C(=O)[C@@H]4C2C(=O)O1 (stereo not given in full)', 0.155),
  ('C=C(CCCC)C(=O)CC[C@H](OC(=O)c1cccnc1)c1cccc(OCCO)c1', 0.387),
  ('COc1ccc(NN2C(C(O)c3ccc(OC)c(OCc4ccccc4)c3)C=CC3C(=O)N(C4CCCCC4)C(=O)C32)cc1 (stereo not given)', 0.395);

* * *

- measurementProtocol: binders of probe aFSTL3 on microarray, primary screen, stem cell growth factor project, biochemical, small-molecule microarray, fluorescence 635/667 (AID 1064);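 further: measures binding of the biotinylated anti-FSTL3 antibody to printed compounds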
- experimentalSetup: higher = more signal
composite z-score values by entry
readoutKind: composite z-score

INSERT INTO results (compound, readoutkind, measuredvalue) VALUES
  ('O=C1N(CCS(=O)(=O)c2ccccc2)c2ccccc2C[C@@]12COC(c1ccc(OCCCO)cc1)=N2', 'composite z-score', -0.178),
  ('COc1ccc(CCN2C(=O)[C@@]3(Cc4ccccc42)c2ccccc2C(=O)N(Cc2ccccc2Cl)[C@H]3c2ccc(CO)cc2)cc1', 'composite z-score', 0.451),
  ('COC(=O)[C@@]1(Cc2ccc(OC)cc2)[C@H]2c3cc(C(=O)N4CCCC4)n(CCc4c[nH]c5cc(F)ccc45)c3C[C@H]2CN1C(=O)c1ccccc1', 'composite z-score', 0.785),
  ('CO[C@H]1O[C@H](CO)[C@@H](OC(=O)Nc2ccc(Oc3ccccc3)cc2)[C@H](OC(=O)Nc2ccccc2)[C@H]1OC(=O)Nc1ccccc1', 'composite z-score', 0.096),
  ('O=C1O[C@H](c2ccccc2)[C@H](c2ccccc2)N2[C@H]1[C@@H](C(=O)NC[C@H](O)c1ccccc1)[C@]1(C(=O)Nc3ccc(C#CCCO)cc31)[C@H]2c1ccc(O)cc1', 'composite z-score', 0.326),
  ('COc1ccc(CCNC(=O)[C@@H]2c3ccccc3C(=O)N(Cc3ccc(OC(F)(F)F)cc3)[C@H]2c2ccc(CO)cc2)cc1', 'composite z-score', 0.111),
  ('CC(C)C[C@@H]1NC(=O)[C@@H]2C[C@H](C(=O)NCCCCCC[N+](C)(C)C)[C@H](c3ccc(O)cc3)N2C1=O', 'composite z-score', -0.0515),
  ('COc1ccc([Si](C)(C)[C@@H]2[C@@H](CCn3cc([C@H](O)c4ccccc4)nn3)O[C@]3(C(=O)N(Cc4cccc(N5CCOC5=O)c4)c4ccccc43)[C@H]2C)cc1', 'composite z-score', 0.752),
  ('COc1ccc(C(O)C2C=CC3C(=O)N(C)C(=O)C3N2Nc2ccccc2)cc1OCc1ccccc1 (stereo unspecified)', 'composite z-score', 0.008),
  ('COc1ccc(CCNC(=O)[C@@]2(Sc3ccc(C)cc3)CC(=O)N(Cc3ccccc3Cl)[C@@H]2c2ccc(CO)cc2I)cc1', 'composite z-score', 0.91),
  ('CCCC[C@H]1OB(O)C[C@H]2C1=C(C)C[C@H]1C(=O)N(Cc3ccccc3)C(=O)[C@H]12', 'composite z-score', -0.573);

Data provenance is PubChem BioAssay.
